# credit: ChEMBL document CHEMBL3098013

System: Fusarium oxysporum
method description: Antimicrobial activity against Fusarium oxysporum MTCC 284 at 50 ug/ml after 48 hrs by disc diffusion method
Format: functional
particulars: MTCC 284, 48 h, read-out: DIZ
measurement label: zone of inhibition at 50 µg/mL

// worked examples, zone of inhibition at 50 µg/mL included
Cc1c(-c2nnc(-c3ccccc3)o2)c(-c2ccc(Cl)cc2)nn1-c1ccccc1
14 mm
COc1cc(-c2nnc(-c3c(-c4ccccc4)nn(-c4ccccc4)c3C)o2)cc(OC)c1OC
8 mm
Cc1c(-c2nnc(-c3ccc(Cl)cc3)o2)c(-c2ccc(Cl)cc2)nn1-c1ccccc1
15 mm
Cc1c(-c2nnc(-c3ccc([N+](=O)[O-])cc3)o2)c(-c2ccc([N+](=O)[O-])cc2)nn1-c1ccccc1
8 mm
Cc1c(-c2nnc(-c3ccccc3)o2)c(-c2ccccc2)nn1-c1ccccc1
3 mm

Provide zone of inhibition at 50 µg/mL for all items below, preserving their order.
1. Cc1c(C(=O)O)c(-c2ccccc2)nn1-c1ccccc1
2. COc1ccc(-c2nnc(-c3c(-c4ccccc4)nn(-c4ccccc4)c3C)o2)cc1

1: 3 mm; 2: 8 mm

* * *

Test system: Bacillus cereus
method description: Antimicrobial activity against Bacillus cereus MTCC 8372 after 24 hrs by microdilution method
Assay type: functional
particulars: MTCC 8372, 24 h
hey, just use YES if measured MBC is less than 200 µg/mL, otherwise NO

COc1cc(-c2nnc(-c3c(-c4ccccc4)nn(-c4ccccc4)c3C)o2)cc(OC)c1OC
NO
COc1ccc(-c2nn(-c3ccccc3)c(C)c2-c2nnc(-c3ccccc3)o2)cc1
NO
Cc1c(C(=O)NN)c(-c2ccccc2)nn1-c1ccccc1
NO
Cc1c(-c2nnc(-c3ccc([N+](=O)[O-])cc3)o2)c(-c2ccc([N+](=O)[O-])cc2)nn1-c1ccccc1
YES
COc1cc(-c2nnc(-c3c(-c4cc(OC)c(OC)c(OC)c4)nn(-c4ccccc4)c3C)o2)cc(OC)c1OC
YES

Regarding Cc1c(-c2nnc(-c3ccc(Cl)cc3)o2)c(-c2ccccc2)nn1-c1ccccc1 , kindly confirm whether its MBC is beneath 200 µg/mL.
NO

For Cc1c(C(=O)O)c(-c2ccccc2)nn1-c1ccccc1 , is the recorded MBC below the cut-off of 200 µg/mL?
NO

* * *

Test system: Staphylococcus aureus
method description: Antimicrobial activity against Staphylococcus aureus MTCC 96 after 24 hrs by microdilution method
Format: functional
particulars: MTCC 96, 24 h
measurement label: MIC (µg/mL)
Give bare numbers, in µg/mL.

CN(C)[C@@H]1C(O)=C(C(N)=O)C(=O)[C@@]2(O)C(O)=C3C(=O)c4c(O)cccc4[C@@](C)(O)[C@H]3C[C@@H]12
10
Cc1c(-c2nnc(-c3ccccc3)o2)c(-c2ccc([N+](=O)[O-])cc2)nn1-c1ccccc1
20
Cc1c(C(=O)O)c(-c2ccccc2)nn1-c1ccccc1
40

Alright, here's another compound for you.
Enter MIC (test system Staphylococcus aureus) for COc1ccc(-c2nn(-c3ccccc3)c(C)c2-c2nnc(-c3ccccc3)o2)cc1
40

* * *

Test system: Aspergillus flavus
method description: Antimicrobial activity against Aspergillus flavus MTCC 873 after 48 hrs by microdilution method
Assay type: functional
particulars: MTCC 873, 48 h
measurement label: MFC (µg/mL)
One number for each entry, in µg/mL.

COc1ccc(-c2nn(-c3ccccc3)c(C)c2-c2nnc(-c3ccccc3)o2)cc1
270
COc1cc(-c2nn(-c3ccccc3)c(C)c2-c2nnc(-c3ccccc3)o2)cc(OC)c1OC
275
Cc1c(-c2nnc(-c3ccc([N+](=O)[O-])cc3)o2)c(-c2ccc([N+](=O)[O-])cc2)nn1-c1ccccc1
275

Provide MFC for all items below, preserving their order.
1. Cc1c(C(=O)NN)c(-c2ccccc2)nn1-c1ccccc1
2. Cc1c(-c2nnc(-c3ccc(Cl)cc3)o2)c(-c2ccccc2)nn1-c1ccccc1

[275, 230]

Each molecule below has a recorded value; state its MFC.
1. Cc1c(-c2nnc(-c3ccccc3)o2)c(-c2ccccc2)nn1-c1ccccc1
2. Cc1c(-c2nnc(-c3ccc(Cl)cc3)o2)c(-c2ccc(Cl)cc2)nn1-c1ccccc1

1: 280; 2: 210
